Test system: HCT-116
Assay: Cytotoxicity against human HCT116 cells assessed as cell growth inhibition after 48 hrs by SRB assay
Assay type: functional, cell-based
Settings: HCT-116, 48 h
Each record is given t if its reported IC50 is strictly below 8 µM. Records at or above 8 µM are given f.

// known answers, use as guide
1) O=C1C(=O)N(CCCCn2cc(COc3cc(=O)oc4ccccc34)nn2)c2ccc(Cl)cc21 | f
2) O=C1C(=O)N(CCCn2cc(COc3cc(=O)oc4ccccc34)nn2)c2ccc(Br)cc21 | f
3) O=C1C(=O)N(CCCn2cc(COc3cc(=O)oc4ccccc34)nn2)c2ccccc21 | t
4) O=C1C(=O)N(CCCCn2cc(COc3cc(=O)oc4ccccc34)nn2)c2ccc(F)cc21 | f
5) O=C1C(=O)N(CCn2cc(COc3cc(=O)oc4ccccc34)nn2)c2ccccc21 | t

Turning now to a further record.
Incoming: For this compound, is IC50 lower than 8 µM? "O=C1C(=O)N(CCn2cc(COc3cc(=O)oc4ccccc34)nn2)c2ccc([N+](=O)[O-])cc21"
Outgoing: f

###

System: COLO 205
Assay: Cytotoxicity against human COLO205 cells assessed as cell growth inhibition after 48 hrs by SRB assay
Type: functional, cell-based
Conditions: COLO 205, 48 h
attribute-measured: IC50 (µM)
All answers are understood in µM, so give the number only.

1. O=C1C(=O)N(CCn2cc(COc3cc(=O)oc4ccccc34)nn2)c2ccc(I)cc21 | 12

Incoming: What IC50 value was documented for this compound, "O=C1C(=O)N(CCCCn2cc(COc3cc(=O)oc4ccccc34)nn2)c2ccccc21" ?
Outgoing: 7.67

Incoming: What IC50 value was documented for this compound, "O=C1C(=O)N(CCCn2cc(COc3cc(=O)oc4ccccc34)nn2)c2ccccc21" ?
Outgoing: 5.71

Incoming: What IC50 value was documented for this compound, "O=C1C(=O)N(CCCn2cc(COc3cc(=O)oc4ccccc34)nn2)c2ccc(F)cc21" ?
Outgoing: 8.88

Incoming: What IC50 value was documented for this compound, "O=C1C(=O)N(CCCn2cc(COc3cc(=O)oc4ccccc34)nn2)c2ccc(Cl)cc21" ?
Outgoing: 10.7

Incoming: What IC50 value was documented for this compound, "O=C1C(=O)N(CCn2cc(COc3cc(=O)oc4ccccc34)nn2)c2ccc(F)cc21" ?
Outgoing: 6.67

Incoming: What IC50 value was documented for this compound, "O=C1C(=O)N(CCCCn2cc(COc3cc(=O)oc4ccccc34)nn2)c2ccc(Cl)cc21" ?
Outgoing: 13.1

Incoming: What IC50 value was documented for this compound, "O=C1C(=O)N(CCn2cc(COc3cc(=O)oc4ccccc34)nn2)c2ccc([N+](=O)[O-])cc21" ?
Outgoing: 13

Incoming: What IC50 value was documented for this compound, "O=C1C(=O)N(CCn2cc(COc3cc(=O)oc4ccccc34)nn2)c2ccc(Cl)cc21" ?
Outgoing: 8.87

###

Tested on: COLO 205
Assay: Cytotoxicity against human COLO205 cells assessed as growth inhibition at 50 uM after 48 hrs by SRB assay relative to control
Assay type: functional
Conditions: COLO 205, 48 h, read-out: GI
attribute-measured: inhibition of growth at 50 µM (%)
All answers are understood in %, so give the number only.

Examples from the recorded data:
1. O=C1C(=O)N(CCCCn2cc(COc3cc(=O)oc4ccccc34)nn2)c2ccc(I)cc21 | 50
2. O=C1C(=O)N(CCCCn2cc(COc3cc(=O)oc4ccccc34)nn2)c2ccc(Cl)cc21 | 60

Incoming: What inhibition of growth at 50 µM value was documented for this compound, "O=C1C(=O)N(CCCCCn2cc(COc3cc(=O)oc4ccccc34)nn2)c2ccc(Br)cc21" ?
Outgoing: 39

Incoming: What inhibition of growth at 50 µM value was documented for this compound, "O=C1C(=O)N(CCn2cc(COc3cc(=O)oc4ccccc34)nn2)c2ccc(I)cc21" ?
Outgoing: 62

Incoming: What inhibition of growth at 50 µM value was documented for this compound, "O=C1C(=O)N(CCn2cc(COc3cc(=O)oc4ccccc34)nn2)c2ccc(Cl)cc21" ?
Outgoing: 76

Incoming: What inhibition of growth at 50 µM value was documented for this compound, "O=C1C(=O)N(CCn2cc(COc3cc(=O)oc4ccccc34)nn2)c2ccc([N+](=O)[O-])cc21" ?
Outgoing: 59

Incoming: What inhibition of growth at 50 µM value was documented for this compound, "O=C1C(=O)N(CCCCCn2cc(COc3cc(=O)oc4ccccc34)nn2)c2ccccc21" ?
Outgoing: 62

###

System: THP-1
Test: Cytotoxicity against human THP1 cells assessed as growth inhibition at 50 uM after 48 hrs by SRB assay relative to control
Type: functional
Details: THP-1, 48 h, read-out: GI
Respond with yes for inhibition of growth at 50 µM values of 70% and above, no for values below.

// known answers, use as guide
1) O=C1C(=O)N(CCCn2cc(COc3cc(=O)oc4ccccc34)nn2)c2ccc(I)cc21 | no
2) O=C1C(=O)N(CCCn2cc(COc3cc(=O)oc4ccccc34)nn2)c2ccccc21 | yes
3) O=C1C(=O)N(CCCn2cc(COc3cc(=O)oc4ccccc34)nn2)c2ccc(F)cc21 | yes
4) O=C1C(=O)N(CCCCn2cc(COc3cc(=O)oc4ccccc34)nn2)c2ccc([N+](=O)[O-])cc21 | no
5) O=C1C(=O)N(CCCCCn2cc(COc3cc(=O)oc4ccccc34)nn2)c2ccc([N+](=O)[O-])cc21 | no

Incoming: Could you verify whether the entry "O=C1C(=O)N(CCCCn2cc(COc3cc(=O)oc4ccccc34)nn2)c2ccc(Br)cc21" shows inhibition of growth at 50 µM of no less than 70%?
Outgoing: no

Incoming: Could you verify whether the entry "O=C1C(=O)N(CCCCCn2cc(COc3cc(=O)oc4ccccc34)nn2)c2ccc(Br)cc21" shows inhibition of growth at 50 µM of no less than 70%?
Outgoing: no

Incoming: Could you verify whether the entry "O=C1C(=O)N(CCCCn2cc(COc3cc(=O)oc4ccccc34)nn2)c2ccccc21" shows inhibition of growth at 50 µM of no less than 70%?
Outgoing: yes

Incoming: Could you verify whether the entry "O=C1C(=O)N(CCCCn2cc(COc3cc(=O)oc4ccccc34)nn2)c2ccc(F)cc21" shows inhibition of growth at 50 µM of no less than 70%?
Outgoing: yes

Incoming: Could you verify whether the entry "O=C1C(=O)N(CCn2cc(COc3cc(=O)oc4ccccc34)nn2)c2ccccc21" shows inhibition of growth at 50 µM of no less than 70%?
Outgoing: yes

###

Test system: HCT-116
Assay: Cytotoxicity against human HCT116 cells assessed as cell growth inhibition after 48 hrs by SRB assay
Type: functional, cell-based
Settings: HCT-116, 48 h
A collection of compounds and their measured IC50
All answers are understood in µM, so give the number only.

Examples from the recorded data:
1. O=C1C(=O)N(CCCCn2cc(COc3cc(=O)oc4ccccc34)nn2)c2ccccc21 | 8.05
2. O=C1C(=O)N(CCn2cc(COc3cc(=O)oc4ccccc34)nn2)c2ccc(F)cc21 | 5.41

Incoming: What IC50 value was documented for this compound, "O=C1C(=O)N(CCn2cc(COc3cc(=O)oc4ccccc34)nn2)c2ccc(Cl)cc21" ?
Outgoing: 5.77

Incoming: What IC50 value was documented for this compound, "O=C1C(=O)N(CCCn2cc(COc3cc(=O)oc4ccccc34)nn2)c2ccc(Cl)cc21" ?
Outgoing: 9.66

Incoming: What IC50 value was documented for this compound, "O=C1C(=O)N(CCCn2cc(COc3cc(=O)oc4ccccc34)nn2)c2ccc(F)cc21" ?
Outgoing: 7.26

Incoming: What IC50 value was documented for this compound, "O=C1C(=O)N(CCn2cc(COc3cc(=O)oc4ccccc34)nn2)c2ccc(I)cc21" ?
Outgoing: 8.99

Incoming: What IC50 value was documented for this compound, "O=C1C(=O)N(CCn2cc(COc3cc(=O)oc4ccccc34)nn2)c2ccc(Br)cc21" ?
Outgoing: 8.09
